System: SF-295
ASSAY METHOD TEXT: NCI tumour cell line growth inhibition, 48 h
The source made the active and inactive calls. Cut-off read from the data, not from the text of the source: active = GI50 up to about 1.1 µM and inactive = higher.
OUTCOME MEASURE: GI50

Solved cases below.
MOLECULE: CCOC(=O)c1c(SC(=O)C(C)(C)Oc2ccc(Cl)cc2)n(-c2ccccc2)c(=S)n(-c2ccccc2)c1=O
OUTCOME MEASURE: GI50
OBSERVED MEASUREMENT: 59.2 µM (inactive)
--
MOLECULE: COc1ccc2c(c1)N1CCc3cc(OC)c(OC)cc3C1C2 (configuration not stated)
OUTCOME MEASURE: GI50
OBSERVED MEASUREMENT: 88.7 µM (inactive)
--
MOLECULE: CC(C)(C)c1ccc2c(c1)C(O)(c1ccccc1)c1cc(C(C)(C)C)ccc1C2(O)C(F)(F)F (configuration not stated)
OUTCOME MEASURE: GI50
OBSERVED MEASUREMENT: 1.43 µM (inactive)
--
MOLECULE: C[C@H]1CC[C@H]([C@@H](C)[C@H]2[C@@H](O)C[C@H]3[C@@H]4CC[C@H]5C[C@@H](O)CC[C@]5(C)[C@H]4CC[C@]23C)NC1
OUTCOME MEASURE: GI50
OBSERVED MEASUREMENT: 16.9 µM (inactive)
--
MOLECULE: O=C1C=CC(=O)C(N(CCO)CCO)=C1.O=C1C=CC2(O)OCCN(CCO)C2=C1
OUTCOME MEASURE: GI50
OBSERVED MEASUREMENT: > 100 µM (inactive)

Need GI50 for each of these molecules.
1. CCOC(=O)C1=C(C)N(Cc2ccc(Cl)cc2Cl)C2(O)C(OC)CC(=O)C3C(=O)N(c4ccccc4)C(=O)C132 (configuration not stated)
2. CC(O)C(N/C=C1/N=C(c2ccccc2)OC1=O)C(=O)O (configuration not stated)
3. O=C1Nc2ccc(Br)cc2/C1=N/Nc1ccccc1[N+](=O)[O-]
4. O=P1(O)c2ccccc2CCc2ccccc21
5. Cc1ccc(C(=O)C#Cc2cn(C3CC(O)C(CO)O3)c(=O)[nH]c2=O)cc1 (configuration not stated)
6. CCOC(=O)C=C1CCN(C(=O)c2ccccc2)CC1
7. O=[N+]([O-])C=C(c1ccc(Cl)cc1)c1ccc(Cl)cc1

1: 4.43 µM (inactive); 2: > 100 µM (inactive); 3: 14 µM (inactive); 4: > 100 µM (inactive); 5: > 100 µM (inactive); 6: > 100 µM (inactive); 7: 18.5 µM (inactive)

====

Tested on: OVCAR-4
ASSAY METHOD TEXT: NCI tumour cell line growth inhibition, 48 h
Active and inactive are the calls of the source. Cut-off read from the data, not from the text of the source: active = GI50 up to about 1.1 µM and inactive = higher.
Outcome field: choose from active, inactive

COMPOUND: O=C1C=CC2(O)OCC3C=C4O[C@@H]5OC6(CCCCC6)O[C@@H]5C4[C@@H]2[C@@H]13 (some centres not stated)
ASSIGNED LABEL: inactive
--
COMPOUND: C/C(=N\Nc1nc2cccnc2s1)c1ccccn1
ASSIGNED LABEL: active
--
COMPOUND: Cc1[nH]n(C2=NCCN2)c(=O)c1C
ASSIGNED LABEL: inactive
--
COMPOUND: N=C(N)c1ccc(OCCCCCOc2ccc(C(=N)N)cc2)cc1 [PENTAMIDINE]
ASSIGNED LABEL: inactive
--
COMPOUND: Oc1nc2ccccc2c2oc3ccccc3c12
ASSIGNED LABEL: inactive
--
COMPOUND: CC1(C)CC[C@]2(C(=O)O)CC[C@]3(C)C(=CC[C@@H]4[C@@]5(C)CC[C@H](OC6OC(CO)C(O)C(O)C6O)C(C)(C)[C@@H]5CC[C@]43C)[C@@H]2C1 (some centres not stated)
ASSIGNED LABEL: inactive

Kindly review the next compound as well.
Please let me know the test result on file for O=C(O)Cn1c(=O)[nH]c(=O)c2[nH]cnc21 .
inactive
